Examples of molecules with documented Percent Effect follow.
system: Wolbachia pipientis; experiment: Anti-Wolbachia Cell-Based Screen; type: functional; set-up: scale not given: in the data most compounds retested in dose-response had high values; conditions: 5 µM
The whole screen tested about 48,000 compounds, of which about 13,000 (27%) showed an effect of 50% or more. Some of the results follow.
reportedMetric: Percent Effect (%)

* Nc1cc(-c2ccc(C(=O)O)cc2O)c2cc[nH]c2n1 | 1.335
* Cn1cc(C2CCCN2C(=O)Cc2coc(-c3ccccc3)n2)cn1 (centres undefined) | -3.572
* O=C1CCC(c2ccccc2)(c2ccccc2)CN1CCO | -6.27
* OCCNc1cc(-c2nccnc2N2CCCC2)c2cc[nH]c2n1 | 104.7
* O=C(c1ccc(SC(F)F)cc1)N1CCOCC1c1ncon1 (centres undefined) | 2.35
* CN(C)CCNc1cc(-c2ncccc2O)c2cc[nH]c2n1 | 15.75
* CNS(=O)(=O)c1cccc(CNC(=O)NCC2CCOC2)c1 (centres undefined) | -2.881
* CCOC(=O)NC(CNC(=O)CCc1ccccn1)CC(C)C (centres undefined) | -10.22
* CC(=O)NCCNc1nccc(CCC(F)(F)F)n1 | -2.049
* CC1CN(c2cc(CNCc3cccc4c3OCCO4)ccn2)CCO1 (centres undefined) | -31.92
* c1cc(CNCc2cccc3c2OCCO3)cc(Cn2cncn2)c1 | 82.82
* Cn1cc(C2CCCN2C(=O)c2cnc(-c3ccco3)s2)cn1 (centres undefined) | 97.73
* CNS(=O)(=O)c1cccc(CNC(=O)c2cc(C)no2)c1 | 131.9
* Cn1cc(C2CCCN2C(=O)c2cnc(-c3ccccn3)s2)cn1 (centres undefined) | 99.88
* CN(C)CCNc1cc(-c2ncccc2C(F)(F)F)c2cc[nH]c2n1 | -6.362
* Nc1cc(-c2cc(O)cc(C(=O)O)c2)c2cc[nH]c2n1 | -2.921
* Nc1cc(-c2nccnc2N2CCCC2)c2cc[nH]c2n1 | 67.22
* Cn1cc(C2CCCN2C(=O)Cc2n[nH]c3ccccc23)cn1 (centres undefined) | -7.231
* COCCCNc1nccc(-c2c[nH][nH]c2=O)n1 | 1.466
* CCCC(=O)N1CCc2c(CNS(C)(=O)=O)cncc2C1.Cl | 100.5
* CNS(=O)(=O)c1ccc(CNC(=O)c2cc(C)no2)cc1 | 3.551
* O=C(O)CNc1cc(-c2nccnc2N2CCCC2)c2cc[nH]c2n1 | 94.3
* CN(C)C[C@@H]1CCC[C@@H]2CN(c3nccc(C(F)(F)F)n3)C[C@@H]21.O=C(O)C(F)(F)F | -9.332
* COc1cccc(-c2cc(NCC(=O)O)nc3[nH]ccc23)n1 | -3.915

Hello, the source for this data is ChEMBL document CHEMBL3988442, in case you need it.
